ASSAY_METHOD_TEXT: solvent given as SMILES
CONDITION_LABEL: in C1CCOC1
READOUT_KIND: emission maximum (nm)
Number only, in nm; omit the unit.

QUERY: Return value of emission maximum for input CN(C)c1ccc(/C=C/C=C2\CC/C(=C\c3ccc(N(C)C)cc3)C2=O)cc1 , no commentary.
RESULT: 649

QUERY: Return value of emission maximum for input COC(C)CC1=N/C(=C\c2cccc(N(C)C)c2)C(=O)N1C (stereo not given) , no commentary.
RESULT: 569

QUERY: Return value of emission maximum for input COc1ccc(-c2cc3c(s2)-c2sc(-c4ccc(OC)cc4)cc2P(c2ccccc2)(c2ccccc2)=[O+][B-]3(c2c(C)cc(C)cc2C)c2c(C)cc(C)cc2C)cc1 , no commentary.
RESULT: 513

QUERY: Return value of emission maximum for input CCCCCCCCCCCCCCn1c(-c2cc(-c3nc4ccc(C)cc4n3CCCCCCCCCCCCCC)cc(-c3nc4ccc(C)cc4n3CCCCCCCCCCCCCC)c2)nc2ccc(C)cc21 , no commentary.
RESULT: 368.6

QUERY: Return value of emission maximum for input N#CC(C#N)=C(/C=C/c1cc2c3c(c1)CCCN3CCC2)c1ccc2c3c(cccc13)CC2 , no commentary.
RESULT: 602

QUERY: Return value of emission maximum for input N#CC(C#N)=Cc1ccc2c(c1)[nH]c1c3ccccc3sc21 , no commentary.
RESULT: 547

QUERY: Return value of emission maximum for input CC(C)c1cc(C(C)C)c(B2c3cc(-n4c5ccccc5c5ccccc54)ccc3N(c3ccccc3)c3ccc(-n4c5ccccc5c5ccccc54)cc32)c(C(C)C)c1 , no commentary.
RESULT: 442.52

QUERY: Return value of emission maximum for input CCn1c2ccccc2c2cc(C#Cc3cc(C#Cc4ccc5c(c4)c4ccccc4n5CC)nc(S(C)(=O)=O)n3)ccc21 , no commentary.
RESULT: 496

QUERY: Return value of emission maximum for input CCCCC1(CCCC)c2cc(C#Cc3ccc(/C=C(\C)c4ccccc4)cc3)ccc2-c2ccc(C#Cc3ccc(/C=C(\C)c4ccccc4)cc3)cc21 , no commentary.
RESULT: 403

QUERY: Return value of emission maximum for input O=C1C2=C(O[B-](F)(F)[n+]3c2ccc2ccccc23)c2ccc(N3CCOCC3)c3cccc1c23 , no commentary.
RESULT: 545

QUERY: Return value of emission maximum for input CCn1c2ccccc2c2cc(/C=C/c3cccc[n+]3CCCS(=O)(=O)[O-])ccc21 , no commentary.
RESULT: 559

QUERY: Return value of emission maximum for input CCCCC1=Cc2c3ccc4cccc5ccc(c6cc(-c7ccc(N(c8ccccc8)c8ccccc8)cc7)n(c26)P1(=O)c1ccccc1)c3c45 (stereo not given) , no commentary.
RESULT: 541

QUERY: Return value of emission maximum for input COc1ccc(-n2c(-c3ccc(-c4cncc5ccccc45)cc3)nc(-c3ccccc3)c2-c2ccccc2)cc1 , no commentary.
RESULT: 432

QUERY: Return value of emission maximum for input c1ccc(/C(=C(\c2ccccc2)c2cc(-c3ccccc3)ccc2-c2ccccc2)c2cc(-c3ccccc3)ccc2-c2ccccc2)cc1 , no commentary.
RESULT: 489

QUERY: Return value of emission maximum for input CCCCCCOc1ccc(N(c2ccc(OCCCCCC)cc2)c2ccc(-c3sc(-c4ccc(N(c5ccc(OCCCCCC)cc5)c5ccc(OCCCCCC)cc5)cc4)c4nc(-c5ccccc5)c(-c5ccccc5)nc34)cc2)cc1 , no commentary.
RESULT: 770

Where do the numbers come from? From the Deep4Chem optical property database.
